Below are AC50 values recorded for Motilin receptor (Homo sapiens, UniProt O43193).

Reference set (6 entries):
compound | AC50
O=C(O)c1ccc(NC(=O)[C@H](Cc2ccc(O)cc2)NC(=O)c2ccccc2)cc1 [BENTIROMIDE] | > 10 µM
COc1cc(C(=O)OCc2cccc(COC(=O)c3cc(OC)c(OC)c(OC)c3)n2)cc(OC)c1OC [PIROZADIL] | > 30 µM
OC[C@H]1O[C@@H](Oc2cc(O)cc(/C=C/c3ccc(O)cc3)c2)[C@H](O)[C@@H](O)[C@@H]1O [PICEID] | > 30 µM
COC(=O)C1=C(C)NC(C)=C(C(=O)OCCN2CCN(C(c3ccccc3)c3ccccc3)CC2)C1c1cccc([N+](=O)[O-])c1 (centres undefined) [MANIDIPINE 6300] | > 30 µM
S=P(N1CC1)(N1CC1)N1CC1 [THIOTEPA] | > 30 µM
O=c1c(O)c(-c2ccc(O)c(O)c2)oc2cc(O)cc(O)c12 [QUERCETIN] | > 10 µM

What measured AC50 goes with Cc1cc(C)nc(NS(=O)(=O)c2ccc(N)cc2)n1 [SULFAMETHAZINE] ? > 10 µM

What measured AC50 goes with Cn1cc(C(=O)[C@@H]2CCc3nc[nH]c3C2)c2ccccc21 [RAMOSETRON] ? > 30 µM

What measured AC50 goes with CC(=O)O[C@]1(C(C)=O)CC[C@H]2[C@@H]3C=C(Cl)C4=CC(=O)[C@@H]5C[C@@H]5[C@]4(C)[C@H]3CC[C@@]21C [CYPROTERONE ACETATE] ? > 10 µM

----------
Below are AC50 values recorded for Thromboxane A2 receptor (Homo sapiens).

Item: NS(=O)(=O)c1cc2c(cc1Cl)N=C(CSCc1ccccc1)NS2(=O)=O [BENZTHIAZIDE] Test system: Thromboxane A2 receptor (Homo sapiens) Read-out: AC50 Value: ? > 10 µM

Item: CC(c1cc2ccccc2s1)N(O)C(N)=O (centres undefined) Test system: Thromboxane A2 receptor (Homo sapiens) Read-out: AC50 Value: ? > 10 µM

Item: CCC(NC(C)C)C(O)c1ccc(O)c2[nH]c(=O)ccc12 (centres undefined) Test system: Thromboxane A2 receptor (Homo sapiens) Read-out: AC50 Value: ? > 30 µM

Item: `Oc1cc(O)c(Cl)cn1` Test system: Thromboxane A2 receptor (Homo sapiens) Read-out: AC50 Value: ? > 30 µM

Item: `O=C(NCCO[N+](=O)[O-])c1cccnc1` Test system: Thromboxane A2 receptor (Homo sapiens) Read-out: AC50 Value: ? > 30 µM

Item: CC(O)(CS(=O)(=O)c1ccc(F)cc1)C(=O)Nc1ccc(C#N)c(C(F)(F)F)c1 (centres undefined) [BICALUTAMIDE] Test system: Thromboxane A2 receptor (Homo sapiens) Read-out: AC50 Value: ? > 30 µM

Item: `CCOC(=O)c1ccc(N)cc1` Test system: Thromboxane A2 receptor (Homo sapiens) Read-out: AC50 Value: ? > 10 µM

Item: `COc1cc(C)c(/C=C/C(C)=C/C=C/C(C)=C/C(=O)O)c(C)c1C` Test system: Thromboxane A2 receptor (Homo sapiens) Read-out: AC50 Value: ? > 10 µM

Item: `COc1ccc([C@@H]2CC(=O)c3c(O)cc(O)cc3O2)cc1O` Test system: Thromboxane A2 receptor (Homo sapiens) Read-out: AC50 Value: ? > 10 µM
